Some compounds, each annotated with its measured IC50.
biological target: human Serotonin 5-HT7A receptor (Homo sapiens, UniProt P34969); construct: expressed in transfected cells; host or cells: CHO-K1; experiment: cAMP HTRF assay, antagonist mode, 5-HT7A; format: cell-based
Sequence (P34969 1-445 isoform P34969-2): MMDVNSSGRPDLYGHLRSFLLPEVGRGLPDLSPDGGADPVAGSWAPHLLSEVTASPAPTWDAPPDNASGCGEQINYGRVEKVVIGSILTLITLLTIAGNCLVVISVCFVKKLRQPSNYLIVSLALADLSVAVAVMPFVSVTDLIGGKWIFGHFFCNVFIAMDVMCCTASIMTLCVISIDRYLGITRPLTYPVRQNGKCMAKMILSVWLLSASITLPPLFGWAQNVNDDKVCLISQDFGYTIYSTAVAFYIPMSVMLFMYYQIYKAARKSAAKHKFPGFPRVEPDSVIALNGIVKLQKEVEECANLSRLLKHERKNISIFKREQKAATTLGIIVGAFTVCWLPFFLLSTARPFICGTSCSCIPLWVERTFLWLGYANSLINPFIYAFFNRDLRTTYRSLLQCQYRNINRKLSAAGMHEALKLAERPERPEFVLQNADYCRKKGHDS

- COMPOUND: "[2H]C([2H])([2H])Nc1cc(OC)c(C(=O)N[C@@H]2CCN(C([2H])([2H])c3ccccc3)[C@@H]2C)cc1Cl [Example 1]"
  SYSTEM: "human Serotonin 5-HT7A receptor (Homo sapiens, UniProt P34969)"
  IC50: "> 3000 nM"

// switching to the query compound
Request: Quick check: IC50 on human Serotonin 5-HT7A receptor (Homo sapiens, UniProt P34969), item CNc1cc(OC)c(C(=O)N[C@@H]2CCN(Cc3ccccc3)[C@@H]2C)cc1Cl [cis (R,R) nemonapride, reference compound] ?
Response: 2470 nM

* * *

target: human Serotonin 5-HT7A receptor (Homo sapiens, UniProt P34969); construct: expressed in transfected cells; host or cells: CHO-K1; assay: Radioligand binding competition, filtration binding assay, 5-HT7A; conditions: [3H]-LSD; average where marked c; read-out: Binding 5-HT7A IC50
// reported IC50 per item
Return type: number; implicit unit nM.

Reference set, count: 2
- COMPOUND: "CNc1cc(OC)c(C(=O)N[C@@H]2CCN(Cc3ccccc3)[C@@H]2C)cc1Cl [cis (R,R) nemonapride, reference compound]"
  QUANTITATIVE READOUT: 129
- COMPOUND: "[2H]C([2H])([2H])Nc1cc(OC)c(C(=O)N[C@@H]2CCN(C([2H])([2H])c3ccccc3)[C@@H]2C)cc1Cl"
  QUANTITATIVE READOUT: 131

As a next step, examine the compound that follows.
Request: What IC50 value was documented for this compound, CNc1cc(OC)c(C(=O)N[C@H]2CCN(Cc3ccccc3)[C@H]2C)cc1Cl (racemic) [Nemonapride] ?
Response: 75.7

* * *

Listed here: compounds with reported pKi for human Serotonin 5-HT7A receptor (Homo sapiens, UniProt P34969).
Hey, just a heads up that pKi is the negative log base 10 of the concentration in molar.

- COMPOUND: "CNc1cc(OC)c(C(=O)N[C@H]2CCN(Cc3ccccc3)[C@H]2C)cc1Cl (racemic) [Nemonapride]"
  MEASURED METRIC: "pKi"
  QUANTITATIVE READOUT: 7.27

# next compound below
Request: // pKi lookup, key: CNc1cc(OC)c(C(=O)N[C@@H]2CCN(Cc3ccccc3)[C@@H]2C)cc1Cl [cis (R,R) nemonapride, reference compound]
Response: 6.99

Values from patent US20250091990A1
